Tested on: T1, Glutathione S-transferase (GST)-tagged AITR (human, UniProt Q9Y5U5 26-139)
T1 construct: also called GST-AITR antigen; GST-AITR analyte; not shown: Glutathione S-transferase (GST) tag
T1 sequence (looked up): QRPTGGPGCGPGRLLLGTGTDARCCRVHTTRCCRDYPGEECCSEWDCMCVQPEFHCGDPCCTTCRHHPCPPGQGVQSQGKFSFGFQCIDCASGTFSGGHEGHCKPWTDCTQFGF
Experiment notes: KD ratio against parental IRTCA-A, repeated from the SPR of Table 3
Test readout: KD Ratio (fold)
Return type: number; implicit unit fold.

For orientation, consider the following solved cases.
IRTCA-A12 (Clone H2A10) Fab (Fab, V domains shown) VH: QVQLVQSGTQVKMPGASVKVSCKASGYTFDDYGIGWVRQAPGQGLEWMGWISPYTHRTNSSPKLQDRVTMTTDTSTSTAYMELRSLRSDDTAVYYCARDGTYYDFWSGYFDNATFDFWGQGTLVTVSS VL: QSVVTQPPSVSAAPGQKVTISCSGSTSNIGNNYVSWYQQLPGTAPKLLIYDNYKRPSGIPDRFSGSKSGTSATLGITGLRTGDEADYFCGTWDSSLNAWVFGGGTKLTVL | 27.6
IRTCA-A1 (Clone L1E9) Fab (Fab, V domains shown) VH: QVQLVQSGTQVKMPGASVKVSCKASGYTFDDYGIGWVRQAPGQGLEWMGWISPYTHRTNSSPKLQDRVTMTTDTSTSTAYMELRSLRSDDTAVYYCARDGTYYDFWSGYFDNGAFDIWGQGTLVTVSS VL: QSVVTQPPSVSAAPGQKVTISCSGSTSNIGNNYVSWYQQLPGTAPKLLIYDNYKRPSGIPDRFSGSKSGTSATLGITGLRTGDEADYFCGSWESGSNAYKFGGGTKLTVL | 8.2

// moving on: another record for KD Ratio
INPUT: Need KD Ratio, item IRTCA-A10 (Clone H1A10) Fab (Fab, V domains shown) VH: QVQLVQSGTQVKMPGASVKVSCKASGYTFDDYGIGWVRQAPGQGLEWMGWISPYTHRTNSSPKLQDRVTMTTDTSTSTAYMELRSLRSDDTAVYYCARDGTYYDFWSGYFDNAAFDSWGQGTLVTVSS VL: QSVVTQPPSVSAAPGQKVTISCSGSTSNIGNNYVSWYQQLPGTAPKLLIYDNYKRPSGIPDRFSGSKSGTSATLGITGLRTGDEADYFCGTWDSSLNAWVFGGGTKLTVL
OUTPUT: 8.4
